# EXPERIMENTAL DETAILS: PZQ-ketoconazole DDI pharmacokinetic study in healthy volunteers
# Format: in vivo, human
# CONDITION INFO: male, human, plasma, oral, 20 mg/kg, 20 mg/kg PZQ plus 200 mg ketoconazole, n = 9; read-out: V d/F, treatment mean (SD)
READOUT: Vd/F (L)
Answer in L, number only, no unit symbol.

[[record]]
compound = "O=C(C1CCCCC1)N1CC(=O)N2CCc3ccccc3[C@@H]2C1 [R‐PZQ, R‐Praziquantel]"
readout = "Vd/F"
readout_value = 7880


For O=C(C1CCCCC1)N1CC(=O)N2CCc3ccccc3[C@H]2C1 [S‐PZQ, S‐Praziquantel] , write its Vd/F.
967
